Tested on: PC3MM cells
PROTOCOL_DETAILS: Cell Proliferation Assay (Cell Titer Glo), PC3MM
Type: cell-based
MEASUREMENT_PARAMETERS: 72 h; PC3MM cells, 3 days incubation; read-out: CP EC50 PC3MM
OUTCOME_MEASURE: EC50

QUERY: I have this molecule here, CN1CCC(Oc2ccc3cnc(Nc4ccc(S(N)(=O)=O)cc4)nc3c2)CC1 , and I need its recorded EC50.
RESULT: < 5 µM

###

System: pAkt308 (phosphorylation of Akt at T308) in PC-3 cells
PROTOCOL_DETAILS: pAkt T308 ECL Assay in PC-3 cells
Format: cell-based
MEASUREMENT_PARAMETERS: Homo sapiens, 6 h, six hours with compound, read-out: PAKT308 PC3 IC50
pIC50: −log10 of the molar value.
OUTCOME_MEASURE: pIC50

Check out these entries, answers already filled in.
{"MOLECULE": "CNS(=O)(=O)Cc1ccc(Nc2ncc3ccc(OC4CCN(C(C)C)CC4)cc3n2)cc1 [Compound 61]", "TARGET_OR_TEST_SYSTEM": "pAkt308 (phosphorylation of Akt at T308) in PC-3 cells", "pIC50": "> 5.30"}
{"MOLECULE": "CC(=O)Nc1ccc(Nc2ncc3cccc(OC4CCN(C(C)C)CC4)c3n2)cc1 [Compound 73]", "TARGET_OR_TEST_SYSTEM": "pAkt308 (phosphorylation of Akt at T308) in PC-3 cells", "pIC50": "5.00 to 5.30"}
{"MOLECULE": "NS(=O)(=O)c1ccc(Nc2ncc3cccc(O[C@@H]4CCNC4)c3n2)cc1 [Compound 37]", "TARGET_OR_TEST_SYSTEM": "pAkt308 (phosphorylation of Akt at T308) in PC-3 cells", "pIC50": "5.00 to 5.30"}
{"MOLECULE": "CC(C)CN1CCC(Oc2cccc3cnc(Nc4ccc(S(N)(=O)=O)cc4)nc23)CC1 [Compound 45]", "TARGET_OR_TEST_SYSTEM": "pAkt308 (phosphorylation of Akt at T308) in PC-3 cells", "pIC50": "> 5.30"}
{"MOLECULE": "CN1CCC(Oc2ccc3cnc(Nc4ccc(S(N)(=O)=O)cc4)nc3c2)CC1 [Compound 52]", "TARGET_OR_TEST_SYSTEM": "pAkt308 (phosphorylation of Akt at T308) in PC-3 cells", "pIC50": "> 5.30"}

QUERY: I have this molecule here, Nc1ncc(-c2ccc3cnc(Nc4ccc(S(N)(=O)=O)cc4)nc3c2OC2CCNCC2)cc1C(F)(F)F [Compound 68] , and I need its recorded pIC50.
RESULT: 5.00 to 5.30

QUERY: I have this molecule here, CN1CCC(Oc2cccc3cnc(Nc4ccc(S(N)(=O)=O)cc4)nc23)CC1 [Compound 35] , and I need its recorded pIC50.
RESULT: > 5.30

QUERY: I have this molecule here, NS(=O)(=O)c1ccc(Nc2ncc3ccc(-c4ncco4)c(OC4CCNCC4)c3n2)cc1 [Compound 26] , and I need its recorded pIC50.
RESULT: 5.00 to 5.30

###

Test system: A2780 cells
PROTOCOL_DETAILS: Cell Proliferation Assay (Cell Titer Glo), A2780
Assay type: cell-based
MEASUREMENT_PARAMETERS: Homo sapiens; Cell Proliferation Assay, A2780; read-out: CPEC50 A2780
pEC50: −log10 of the molar value.
OUTCOME_MEASURE: pEC50

Check out these entries, answers already filled in.
{"MOLECULE": "CC(C)Oc1cccc2cnc(Nc3cccc(S(C)(=O)=O)c3)nc12 [Compound 555]", "OBSERVED_VALUE": "> 5.30"}
{"MOLECULE": "CN(C)CCOc1cccc2cnc(Nc3ccc(C(N)=O)cc3)nc12 [Compound 504]", "OBSERVED_VALUE": "> 5.30"}

QUERY: I have this molecule here, CC(C)(C)OC(=O)N1CCC(Oc2c(Br)ccc3cnc(Nc4ccc(S(N)(=O)=O)cc4)nc23)CC1 [Compound 420] , and I need its recorded pEC50.
RESULT: > 5.30

QUERY: I have this molecule here, CNS(=O)(=O)Cc1ccc(Nc2ncc3cccc(OC)c3n2)cc1 [Compound 498] , and I need its recorded pEC50.
RESULT: 5.00 to 5.30

###

System: PC-3 cells
PROTOCOL_DETAILS: Cell Proliferation Assay (Cell Titer Glo), PC-3 cell line
Type: cell-based
MEASUREMENT_PARAMETERS: Homo sapiens, PC-3, PC3 cells; read-out: CPEC50 PC3
pEC50: −log10 of the molar value.
# pEC50 per record follows

{"CPD_SMILES": "CN(C)C1CCN(C(=O)c2cncc(-c3cccc4cnc(Nc5ccc(S(N)(=O)=O)cc5)nc34)c2)CC1", "pEC50": "5.00 to 5.30"}

QUERY: I have this compound here, CN1CCC(CNc2ccc(-c3cccc4cnc(Nc5ccc(S(N)(=O)=O)cc5)nc34)cn2)CC1 , and I need its recorded pEC50.
RESULT: > 5.30

QUERY: I have this compound here, NS(=O)(=O)c1ccc(Nc2ncc3cccc(-c4cncc(C(=O)N5CCNC(=O)C5)c4)c3n2)cc1 , and I need its recorded pEC50.
RESULT: 5.00 to 5.30

QUERY: I have this compound here, CC(C)N1CCN(Cc2cccc3cnc(Nc4ccc(S(N)(=O)=O)cc4)nc23)CC1 , and I need its recorded pEC50.
RESULT: 5.00 to 5.30

###

TARGET_OR_TEST_SYSTEM: UniProt:O15530
PROTOCOL_DETAILS: PDK1 Kinase Alpha Screen Assay
Format: biochemical
MEASUREMENT_PARAMETERS: read-out: PDK1 IC50
pIC50: −log10 of the molar value.
OUTCOME_MEASURE: pIC50

Check out these entries, answers already filled in.
{"MOLECULE": "NS(=O)(=O)c1ccc(Nc2ncc3ccc(Br)c(OC4CCNCC4)c3n2)cc1", "pIC50": "> 5.30"}
{"MOLECULE": "NS(=O)(=O)c1ccc(Nc2ncc3cccc(-c4ccnc(N5CCOCC5)c4)c3n2)cc1", "pIC50": "> 5.30"}
{"MOLECULE": "CN1C2CCC1CC(Oc1cccc3cnc(Nc4ccc(S(N)(=O)=O)cc4)nc13)C2 (stereo not shown)", "pIC50": "> 5.30"}
{"MOLECULE": "NS(=O)(=O)c1ccc(Nc2ncc3cc(Cl)cc(-c4ccc(NCCN5CCCC5)nc4)c3n2)cc1", "pIC50": "> 5.30"}
{"MOLECULE": "CN1CCN(C(=O)c2cccc3cnc(Nc4ccc(S(N)(=O)=O)cc4)nc23)CC1", "pIC50": "> 5.30"}

QUERY: I have this molecule here, CN1CCC(NCc2cccc3cnc(Nc4ccc(S(N)(=O)=O)cc4)nc23)CC1 , and I need its recorded pIC50.
RESULT: > 5.30

QUERY: I have this molecule here, NS(=O)(=O)c1ccc(Nc2ncc3cccc(-c4ccncc4)c3n2)cc1 , and I need its recorded pIC50.
RESULT: > 5.30

QUERY: I have this molecule here, O=S(=O)(NC1CC1)c1cccc(Nc2ncc3cccc(OC4CCNCC4)c3n2)c1 , and I need its recorded pIC50.
RESULT: > 5.30

###

# IC50 per record follows
TARGET_OR_TEST_SYSTEM: PDK1 kinase (Homo sapiens)
Sequence (O15530 whole entry): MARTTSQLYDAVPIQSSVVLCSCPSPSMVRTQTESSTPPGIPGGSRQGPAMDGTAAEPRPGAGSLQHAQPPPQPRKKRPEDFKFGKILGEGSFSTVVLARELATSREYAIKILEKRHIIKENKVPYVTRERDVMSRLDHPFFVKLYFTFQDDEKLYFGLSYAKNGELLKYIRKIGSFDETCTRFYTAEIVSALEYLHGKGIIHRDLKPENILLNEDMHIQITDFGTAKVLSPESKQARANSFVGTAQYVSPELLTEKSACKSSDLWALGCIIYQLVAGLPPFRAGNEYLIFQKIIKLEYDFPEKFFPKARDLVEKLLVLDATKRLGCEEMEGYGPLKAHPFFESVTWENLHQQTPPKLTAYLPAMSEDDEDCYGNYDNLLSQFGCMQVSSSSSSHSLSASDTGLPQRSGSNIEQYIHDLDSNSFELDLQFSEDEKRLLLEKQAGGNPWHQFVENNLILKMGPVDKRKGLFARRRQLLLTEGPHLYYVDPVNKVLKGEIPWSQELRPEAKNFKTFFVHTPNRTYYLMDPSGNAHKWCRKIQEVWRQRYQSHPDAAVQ
PROTOCOL_DETAILS: PDK1 Kinase Alpha Screen Assay
Assay type: biochemical
MEASUREMENT_PARAMETERS: PDK1 Kinase Alpha Screen Assay; read-out: PDK1 IC50

Check out these entries, answers already filled in.
{"CPD_SMILES": "CC(C)NS(=O)(=O)c1ccc(Nc2ncc3c(Cl)ccc(OC4CCNCC4)c3n2)cc1", "TARGET_OR_TEST_SYSTEM": "PDK1 kinase (Homo sapiens)", "OUTCOME_MEASURE": "IC50", "OBSERVED_VALUE": "< 5 µM"}
{"CPD_SMILES": "NS(=O)(=O)c1ccc(Nc2ncc3cccc(-c4cccnc4)c3n2)cc1", "TARGET_OR_TEST_SYSTEM": "PDK1 kinase (Homo sapiens)", "OUTCOME_MEASURE": "IC50", "OBSERVED_VALUE": "< 5 µM"}
{"CPD_SMILES": "NS(=O)(=O)c1ccc(Nc2ncc3cccc(-c4ccc(-c5ccn[nH]5)cc4)c3n2)cc1", "TARGET_OR_TEST_SYSTEM": "PDK1 kinase (Homo sapiens)", "OUTCOME_MEASURE": "IC50", "OBSERVED_VALUE": "< 5 µM"}

// next entry
QUERY: Value wanted: IC50 (PDK1 kinase (Homo sapiens)) of entry CC(C)N1CCC(Oc2ccc3cnc(Nc4ccc(S(C)(=O)=O)cc4)nc3c2)CC1
RESULT: < 5 µM
